Reference source for all entries: paper PMC3728706

ASSAYED TARGET: fluorescently labeled peptide derived from the C-terminus of β-catenin
PROTOCOL: fluorescence polarisation
METRIC: Kd (µM)

>>> readout_value("Synip PDZ domain (domain or fragment) AFRVITVTKETGLGLKILGGINRNEGPLVYIHEVIPGGDCYKDGRLKPGDQLVSINKESMIGVSFEEAKSIITRAKLRSESPWEIAF")
276

1. Shank3 PDZ domain (domain or fragment) VAILQKRDHEGFGFVLRGAKAETPIEEFTPTPAFPALQYLESVDVEGVAWRAGLRTGDFLIEVNGVNVVKVGHKQVVGLIRQGGNRLVMKVVSVT
2. PDZ11 PDZ domain (domain or fragment) IVTLKKPPGAQLGFNIRGGKASQLGIFISKVIPDSDAHRAGLQEGDQVLAVNDVDFQDIEHSKAVEILKTAREISMRVRFFPY
3. Tiam2 PDZ domain (domain or fragment) DVQLTKTGDMTDFGFAVTVQVDEHQHLNRIFISDVLPDSLAYGGGLRKGNEITSLNGEPVSDLDIQQMEALFSEKSVGLTLVARPVT
4. Tip1 PDZ domain (domain or fragment) RVEIHKLRQGENLILGFSIGGGIDQDPSQNPFSEDKTDKGIYVTRVSEGGPAEIAGLQIGDKIMQVNGWDMTMVTHDQARKRLTKRSEEVVRLLVTRQ
[in] Falling order of Kd, please. Output the labels ranked as instructed.
[out] 2, 1, 3, 4
